Measured values drawn from paper PMC11367644 for this set.

Target: T1, FIP200 claw domain (1490-1594) K1568A (human, UniProt Q8TDY2 1490-1594, K1568A)
T1 construct: source: E. coli Rosetta (DE3), purified (Ni-NTA, Superdex 200, HiTrap SP FF); not shown: SUMO, N-terminal, cleaved
T1 sequence (Q8TDY2 1490-1594 K1568A): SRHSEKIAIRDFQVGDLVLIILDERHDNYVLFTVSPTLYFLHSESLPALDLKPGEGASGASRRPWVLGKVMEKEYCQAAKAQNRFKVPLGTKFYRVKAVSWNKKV
Assay: ITC; peptide (4 mM) injected into FIP200 claw protein (0.25 mM); 20 °C; buffer B (50 mM NaH2PO4, 150 mM NaCl, pH 7.0); single binding site model
Settings: both partners purified
Square brackets hold non-standard residues; d marks the D form. Ends that are not written are not given here. pS = N[C@@H](COP(=O)(O)O)C(=O)O
readout_name: pKd
Worth noting: pKd values are minus log10 of concentrations stated in mol/L.

Request: Give its pKd value. Item: SSGTS[pS]EFEVVTPEEQ (FIR motif of TNIP1 with an elongated C terminus (T129-Q133); source: synthetic peptide (GL Biochem, Shanghai)) [TNIP1_pS123^long peptide]
Response: 3.88
